Catalogue of pKa readings, one per entry.
EXPERIMENTAL DETAILS: Determination of pKa of formulated lipids (TNS fluorescence assay in lipid nanoparticles)
Assay type: physicochemical
ASSAY SETUP: probe 2-(p-toluidino)-6-napthalene sulfonic acid (TNS), 1 µM final, cationic lipid formulated in lipid nanoparticles (cationic lipid/DSPC/cholesterol/PEG-lipid 47.5/10/40.7/1.8 mol %), read-out: pKa
QUANTITY MEASURED: pKa

>  <MOLECULE>
CCCCCCC(CCCC)COC(=O)CCCCCC(CCCCCC(=O)OCC(CCCC)CCCCCC)N(CCCCN(C)C)C(=O)C(F)(F)C(F)(F)C(F)(F)C(F)(F)C(F)(F)C(F)(F)C(F)(F)F (centres unmarked) [Compound I-10]

>  <VALUE REPORTED>
6.18

$$$$
>  <MOLECULE>
CCCCCCCCC(CCCCCC)COC(=O)CCCCCC(CCCCCC(=O)OCC(CCCCCC)CCCCCCCC)N(CCCN(C)C)C(=O)CC(F)(F)F (centres unmarked) [Compound I-12]

>  <VALUE REPORTED>
6.22

$$$$
>  <MOLECULE>
CCCCC(CC)COC(=O)CCCCCCCCC(CCCCCCCCC(=O)OCC(CC)CCCC)N(CCCCN(C)C)C(=O)C(F)(F)C(F)(F)C(F)(F)C(F)(F)C(F)(F)C(F)(F)C(F)(F)F (centres unmarked) [Compound I-5]

>  <VALUE REPORTED>
5.92

$$$$
>  <MOLECULE>
CCCCCCCCC(CCCCCC)COC(=O)CCCCCC(CCCCCC(=O)OCC(CCCCCC)CCCCCCCC)N(CCCCCN(C)C)C(=O)C(F)(F)C(F)(F)C(F)(F)C(F)(F)C(F)(F)C(F)(F)C(F)(F)F (centres unmarked) [Compound I-9]

>  <VALUE REPORTED>
6.32

$$$$
>  <MOLECULE>
CCCCCCCC(F)C(=O)N(CCCN1CCCC1)C(CCCCCCCCC(=O)OCC(CCCC)CCCCCC)CCCCCCCCC(=O)OCC(CCCC)CCCCCC (centres unmarked) [Compound I-22]

>  <VALUE REPORTED>
5.96

$$$$

---

EXPERIMENTAL DETAILS: Determination of pKa of formulated lipids (TNS fluorescence assay in lipid nanoparticles)
Assay type: physicochemical
ASSAY SETUP: probe 2-(p-toluidino)-6-napthalene sulfonic acid (TNS), 1 µM final, cationic lipid formulated in lipid nanoparticles (cationic lipid/DSPC/cholesterol/PEG-lipid 47.5/10/40.7/1.8 mol %), read-out: pKa
Catalogue of pKa readings, one per entry.

>  <COMPOUND>
CCCCCCC(CCCC)COC(=O)CCCCCC(CCCCCC(=O)OCC(CCCC)CCCCCC)N(CCCCCN(C)C)C(=O)C(F)(F)C(F)(F)C(F)(F)C(F)(F)C(F)(F)C(F)(F)C(F)(F)F (centres unmarked) [Compound I-11]

>  <pKa>
6.28

$$$$
>  <COMPOUND>
CCCCCCCCC(CCCCCC)COC(=O)CCCCCC(CCCCCC(=O)OCC(CCCCCC)CCCCCCCC)N(CCCN(C)C)C(=O)CCCC(F)(F)F (centres unmarked) [Compound I-13]

>  <pKa>
6.68

$$$$
>  <COMPOUND>
CCCCCCC(CCCC)COC(=O)CCCCCC(CCCCCC(=O)OCC(CCCC)CCCCCC)N(CCCN(C)C)C(=O)CCCC(F)(F)F (centres unmarked) [Compound I-15]

>  <pKa>
6.78

$$$$
>  <COMPOUND>
CCCCCCCCC(CCCCCC)COC(=O)CCCCCC(CCCCCC(=O)OCC(CCCCCC)CCCCCCCC)N(CCN1CCN(C)CC1)C(=O)C(F)(F)C(F)(F)C(F)(F)C(F)(F)C(F)(F)C(F)(F)C(F)(F)F (centres unmarked) [Compound I-8]

>  <pKa>
5.58

$$$$
>  <COMPOUND>
CCCCCCCCCCN(C(=O)C(F)CCCN(C)C)C(CCCCCCCCC(=O)OCC(CCCC)CCCCCC)CCCCCCCCC(=O)OCC(CCCC)CCCCCC (centres unmarked) [Compound I-24]

>  <pKa>
6.04

$$$$
>  <COMPOUND>
CCCCCCC(CCCC)COC(=O)CCCCCC(CCCCCC(=O)OCC(CCCC)CCCCCC)N(CCN(C)C)C(=O)CCCC(F)(F)F (centres unmarked) [Compound I-16]

>  <pKa>
5.97

$$$$
>  <COMPOUND>
CCCCCCCCC(CCCCCC)COC(=O)CCCCCCCCC(CCCCCCCCC(=O)OCC(CCCCCC)CCCCCCCC)N(CCCN(C)C)C(=O)CCCC(F)(F)F (centres unmarked) [Compound I-14]

>  <pKa>
6.28

$$$$
>  <COMPOUND>
CCCCCCCCC(CCCCCC)COC(=O)CCCCCC(CCCCCC(=O)OCC(CCCCCC)CCCCCCCC)N(CCCCN(C)C)C(=O)C(F)(F)C(F)(F)C(F)(F)C(F)(F)C(F)(F)C(F)(F)C(F)(F)F (centres unmarked) [Compound I-7]

>  <pKa>
6.08

$$$$
